Some compounds, each annotated with its measured EC50.
TARGET: α4β7 integrin interaction with MadCAM-1 (RPMI8866 cells) (Homo sapiens, UniProt P13612+P26010)
Construct: α4β7 integrin expressing cells; endogenous in cells
Sequence (P13612 34-1032): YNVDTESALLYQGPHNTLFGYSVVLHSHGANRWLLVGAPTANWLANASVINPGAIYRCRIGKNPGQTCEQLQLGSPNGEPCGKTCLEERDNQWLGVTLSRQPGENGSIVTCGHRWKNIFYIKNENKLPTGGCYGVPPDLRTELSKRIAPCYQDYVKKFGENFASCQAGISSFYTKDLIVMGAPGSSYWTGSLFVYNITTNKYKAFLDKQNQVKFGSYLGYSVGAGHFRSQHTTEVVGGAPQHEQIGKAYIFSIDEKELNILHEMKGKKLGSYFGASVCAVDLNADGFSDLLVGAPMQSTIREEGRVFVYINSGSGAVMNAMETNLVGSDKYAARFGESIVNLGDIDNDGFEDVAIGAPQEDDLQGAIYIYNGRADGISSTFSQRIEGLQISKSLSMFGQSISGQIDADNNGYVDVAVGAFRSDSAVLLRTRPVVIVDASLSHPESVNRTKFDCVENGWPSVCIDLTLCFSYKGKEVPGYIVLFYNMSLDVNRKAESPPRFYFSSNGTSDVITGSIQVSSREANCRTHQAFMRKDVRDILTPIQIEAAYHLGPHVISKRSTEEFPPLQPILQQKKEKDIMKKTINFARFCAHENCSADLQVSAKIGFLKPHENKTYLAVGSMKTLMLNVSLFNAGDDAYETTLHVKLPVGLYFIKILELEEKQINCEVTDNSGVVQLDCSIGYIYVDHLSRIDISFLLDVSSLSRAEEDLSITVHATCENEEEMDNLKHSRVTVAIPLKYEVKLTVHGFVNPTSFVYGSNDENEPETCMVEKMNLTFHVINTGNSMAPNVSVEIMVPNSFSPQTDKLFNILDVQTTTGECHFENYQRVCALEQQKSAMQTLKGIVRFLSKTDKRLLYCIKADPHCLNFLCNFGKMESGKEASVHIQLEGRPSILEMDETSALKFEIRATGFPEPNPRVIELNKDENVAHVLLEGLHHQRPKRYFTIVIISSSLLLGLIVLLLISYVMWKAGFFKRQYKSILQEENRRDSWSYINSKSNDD
Sequence (P26010 20-798): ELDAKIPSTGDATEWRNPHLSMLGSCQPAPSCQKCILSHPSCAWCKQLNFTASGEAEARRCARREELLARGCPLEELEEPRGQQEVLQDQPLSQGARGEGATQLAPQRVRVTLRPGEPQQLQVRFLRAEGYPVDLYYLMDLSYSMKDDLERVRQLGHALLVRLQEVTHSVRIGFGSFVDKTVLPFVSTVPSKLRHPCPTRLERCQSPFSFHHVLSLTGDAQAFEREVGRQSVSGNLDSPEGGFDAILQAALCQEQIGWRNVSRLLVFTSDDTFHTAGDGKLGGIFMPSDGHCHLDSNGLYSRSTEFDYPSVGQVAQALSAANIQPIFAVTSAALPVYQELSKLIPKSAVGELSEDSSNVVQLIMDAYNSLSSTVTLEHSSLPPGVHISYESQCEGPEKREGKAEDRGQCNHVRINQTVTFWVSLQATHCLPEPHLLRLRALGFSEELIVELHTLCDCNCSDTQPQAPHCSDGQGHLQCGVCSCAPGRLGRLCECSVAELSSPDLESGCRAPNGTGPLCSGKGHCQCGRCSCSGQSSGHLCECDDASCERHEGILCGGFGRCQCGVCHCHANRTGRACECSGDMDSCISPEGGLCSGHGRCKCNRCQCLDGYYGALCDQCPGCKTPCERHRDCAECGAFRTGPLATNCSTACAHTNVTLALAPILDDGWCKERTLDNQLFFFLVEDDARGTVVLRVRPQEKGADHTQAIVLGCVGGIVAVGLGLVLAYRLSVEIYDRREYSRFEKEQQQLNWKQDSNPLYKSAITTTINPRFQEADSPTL
METHOD: α4β7 Integrin Cell Capture Assay
REPORTED CONDITIONS: capture of α4β7 integrin expressing RPMI8866 cells on recombinant MadCAM-1 extracellular domain-coated plate; 0.5 mM MnCl2
Give the number; nM is assumed, so skip it.

Study these solved cases before continuing.
>>> measured_result("Cc1c(-c2ccc(C[C@H](NC(=O)c3c(F)cc(N4CCOC[C@@H]4C(F)(F)F)cc3F)C(=O)O)c3c2OCCC3)c(=O)n(C)c2ccc(F)cc12")
0.236
>>> measured_result("Cc1cc(N2CCOC[C@@H]2C(F)(F)F)cc(F)c1C(=O)N[C@@H](Cc1ccc(-c2cc3cnccc3n(C)c2=O)c2c1CCCO2)C(=O)O")
0.14
>>> measured_result("C[C@@H](Nc1cc(F)c(C(=O)N[C@@H](Cc2ccc(-c3c(Cl)cc(C#N)cc3Cl)c3c2CCCO3)C(=O)O)c(F)c1)C(F)(F)F")
11
>>> measured_result("Cc1cc(N2CCOC[C@@H]2C(F)(F)F)cc(F)c1C(=O)N[C@@H](Cc1ccc(-c2c(C)nc(C)n(C)c2=O)c2c1CCCO2)C(=O)O (atropisomer, axis not shown) [Example 119]")
0.089
>>> measured_result("O=C(N[C@@H](Cc1ccc(-c2c(Cl)cc(F)cc2Cl)c2c1OCCO2)C(=O)O)c1c(F)cccc1OC(F)F")
444

**Query** Look up EC50: CC[C@@H](Nc1cc(F)c(C(=O)N[C@@H](Cc2ccc(-c3c(C(F)(F)F)cc(C)n(C)c3=O)c3c2CN(C)CC3)C(=O)O)c(F)c1)C(F)(F)F
**Result** 1.34
